Experiment: AUC (0 to 18 hrs) in 129/sve mouse brain at 30 mg/kg, po administered as single dose by LC-MS/MS analysis
Format: ADME, organism-based
Parameters: time < 18 hr, dose 30 mg/kg, route oral
test.readout: AUC(0-t) at 18 h (µM·h)
Only the number, expressed in µM·h, is required.

// NC(=O)[C@@H](CCC(F)(F)F)N(Cc1ccc(-c2ncon2)cc1F)S(=O)(=O)c1ccc(Cl)cc1 [AVAGACESTAT] : AUC(0-t) at 18 h value = 5.18

----------
Experiment: Apparent permeability from apical to basal side of dog RRCK cells
Assay type: ADME, cell-based, Canis lupus familiaris, MDCKII-LE
Conditions: MDCK
Papp A→B for assorted molecules
Report the value in ×10⁻⁶ cm/s with no unit label.

structure.smiles	unit.info	Papp A→B
NC(=O)[C@@H](CCC(F)(F)F)N(CC1(c2ncon2)CC1)S(=O)(=O)c1ccc(Cl)cc1	×10⁻⁶ cm/s	16.4

// sample N#C[C@@H]1C[C@H]1CN([C@H](CCC(F)(F)F)C(N)=O)S(=O)(=O)c1ccc(Cl)cc1 , its Papp A→B was 9.94

Noted for NC(=O)[C@@H](CCC(F)(F)F)N(CC12CC(c3ncon3)(C1)C2)S(=O)(=O)c1ccc(Cl)cc1 : its Papp A→B reads 19.3

Lab note: N#CCCCCN([C@H](CCC(F)(F)F)C(N)=O)S(=O)(=O)c1ccc(Cl)cc1 gave Papp A→B of 24

Form: molecule = NC(=O)[C@@H](CCC(F)(F)F)N(CCc1ncon1)S(=O)(=O)c1ccc(Cl)cc1 ; Papp A→B = 29.6

Reported Papp A→B of N#Cc1ccc(CN([C@H](CCC(F)(F)F)C(N)=O)S(=O)(=O)c2ccc(Cl)cc2)c(F)c1 : 18.7

Consider C[C@]1(C#N)C[C@@H](CN([C@H](CCC(F)(F)F)C(N)=O)S(=O)(=O)c2ccc(Cl)cc2)C1 . Its measured Papp A→B is 25.7

Per the records, this molecule ( N#CC1(CN([C@H](CCC(F)(F)F)C(N)=O)S(=O)(=O)c2ccc(Cl)cc2)CC1 ) has Papp A→B equal to 29.9

molecule NC(=O)[C@@H](CCC(F)(F)F)N(C[C@H]1C[C@@H](c2ncon2)C1)S(=O)(=O)c1ccc(Cl)cc1 , Papp A→B observed: 14.1

Notebook: NC(=O)[C@@H](CCC(F)(F)F)N(CCCc1ncon1)S(=O)(=O)c1ccc(Cl)cc1 , Papp A→B read as 31.3

Please fill in: Papp A→B reported for N#CCCN([C@H](CCC(F)(F)F)C(N)=O)S(=O)(=O)c1ccc(Cl)cc1 = 10.2

----------
Assay: AUC (0 to 24 hrs) in Sprague-Dawley rat at 5 mg/kg, po
Type: ADME, organism-based
Set-up: time < 24 hr, dose 5 mg/kg, route oral
Conditions: plasma
test.readout: AUC(0-t) at 24 h (µM·h)
Enter your answer as a number in µM·h; do not include the unit.

Entry NC(=O)[C@@H](CCC(F)(F)F)N(CC12CC(c3ncon3)(C1)C2)S(=O)(=O)c1ccc(Cl)cc1 ; AUC(0-t) at 24 h = 19.4

----------
As shown below, each of these molecules has a reported efflux ratio value.
Tested on: P-gp
Test: Efflux ratio of apparent permeability from basal to apical side to apical to basal side of MDCK cells expressing human P-gp
Assay type: ADME, cell-based, Canis lupus familiaris
Details: dog, MDCK-MDR1
The response must contain the number and no unit.

structure.smiles	value.measured
NC(=O)[C@@H](CCC(F)(F)F)N(Cc1ccc(-c2ncon2)cc1F)S(=O)(=O)c1ccc(Cl)cc1	1.72
N#Cc1ccc(CN([C@H](CCC(F)(F)F)C(N)=O)S(=O)(=O)c2ccc(Cl)cc2)cc1	2.05
N#CC12CC(CN([C@H](CCC(F)(F)F)C(N)=O)S(=O)(=O)c3ccc(Cl)cc3)(C1)C2	2.04

Please fill in: efflux ratio reported for N#Cc1ccc(CN([C@H](CCC(F)(F)F)C(N)=O)S(=O)(=O)c2ccc(Cl)cc2)c(F)c1 = 1.71

The measured efflux ratio associated with NC(=O)[C@@H](CCC(F)(F)F)N(CC12CC(c3ncon3)(C1)C2)S(=O)(=O)c1ccc(Cl)cc1 reads 1.66
